B1: Caulobacter ParB omega fusion; a variant is named by its letters at X, in order, B8GW30 (parent)
chain: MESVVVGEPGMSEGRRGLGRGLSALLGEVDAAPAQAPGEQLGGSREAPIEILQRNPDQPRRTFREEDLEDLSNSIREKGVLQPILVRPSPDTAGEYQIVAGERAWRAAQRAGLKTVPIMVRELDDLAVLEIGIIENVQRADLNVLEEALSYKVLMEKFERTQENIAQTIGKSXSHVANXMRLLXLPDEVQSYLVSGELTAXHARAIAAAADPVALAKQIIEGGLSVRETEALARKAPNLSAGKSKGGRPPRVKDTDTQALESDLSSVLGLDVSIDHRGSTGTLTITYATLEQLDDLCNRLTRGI

variants of: B1; experiment: one-hybrid fitness for binding parS DNA (scaled: cognate 1, non-cognate 0); higher = stronger binding; conditions: with parS DNA site
The full ranking holds about 81,000 sequences; the median of “one-hybrid fitness for binding parS DNA” is about -0.17, and the highest 2% start at about 0.51. Only a selection was taken, and the highest values are over-represented in it overall.

# variant spec, one-hybrid fitness for binding parS DNA
measured = [
    ("RCWN", 0.401),
    ("RKVD", "≤ 0.2"),
    ("KNRS", "≤ 0.2"),
    ("RGMT", 0.457),
    ("HFFL", "≤ 0.2"),
    ("RKVR", "≤ 0.2"),
    ("RDLC", "≤ 0.2"),
    ("RTKK", "≤ 0.2"),
    ("PGDI", "≤ 0.2"),
    ("WIWS", "≤ 0.2"),
    ("LTRT", "≤ 0.2"),
    ("TIST", "≤ 0.2"),
    ("SREL", "≤ 0.2"),
    ("RRES", 0.752),
    ("RRED", "≤ 0.2"),
    ("TVNA", "≤ 0.2"),
    ("RCWS", 1.09),
    ("KHQR", "≤ 0.2"),
    ("RSES", 0.902),
    ("RSEP", "≤ 0.2"),
    ("RQSH", "≤ 0.2"),
    ("DTKC", "≤ 0.2"),
    ("RRMQ", "≤ 0.2"),
    ("RSWS", 0.989),
    ("RRHF", "≤ 0.2"),
    ("RMWP", "≤ 0.2"),
    ("RGEN", "≤ 0.2"),
    ("RHEN", 0.369),
    ("LSPY", "≤ 0.2"),
    ("RSHF", 0.257),
    ("RKKM", 0.231),
    ("MTHL", "≤ 0.2"),
    ("RTVC", 0.929),
    ("RKMY", 0.386),
    ("RTKC", 0.813),
    ("SRDG", "≤ 0.2"),
    ("HDFT", "≤ 0.2"),
    ("PNLY", "≤ 0.2"),
    ("RHED", "≤ 0.2"),
    ("STCC", "≤ 0.2"),
    ("RDMT", "≤ 0.2"),
    ("RKMF", "≤ 0.2"),
    ("RQCR", "≤ 0.2"),
    ("SSYC", "≤ 0.2"),
    ("HSTQ", "≤ 0.2"),
    ("CCRD", "≤ 0.2"),
    ("RMWD", "≤ 0.2"),
    ("RQSD", "≤ 0.2"),
    ("RMHC", 0.979),
    ("RKVT", 0.795),
    ("RDHC", "≤ 0.2"),
    ("RWKN", 0.421),
    ("RWKG", 0.901),
    ("RWVR", "≤ 0.2"),
    ("FHNR", "≤ 0.2"),
    ("QDQT", "≤ 0.2"),
    ("RMFF", 0.206),
    ("RCHC", 1),
    ("RMAY", 0.436),
    ("RTMQ", 0.208),
    ("RGES", 0.554),
    ("LEMF", "≤ 0.2"),
    ("RDMK", "≤ 0.2"),
    ("NVQI", "≤ 0.2"),
    ("RRHQ", "≤ 0.2"),
    ("PCFG", "≤ 0.2"),
    ("RPWS", "≤ 0.2"),
    ("RGED", "≤ 0.2"),
    ("DKHC", "≤ 0.2"),
    ("WCQR", "≤ 0.2"),
    ("PRIV", "≤ 0.2"),
    ("RQSG", 0.984),
    ("YQRH", "≤ 0.2"),
    ("RQGQ", "≤ 0.2"),
    ("RSWD", "≤ 0.2"),
    ("RMTI", "≤ 0.2"),
    ("QCAL", "≤ 0.2"),
    ("RPLC", "≤ 0.2"),
    ("RRMF", "≤ 0.2"),
    ("RRHC", 0.616),
    ("IGRG", "≤ 0.2"),
    ("IMKR", "≤ 0.2"),
    ("YIYL", "≤ 0.2"),
    ("QQDM", "≤ 0.2"),
    ("DPQT", "≤ 0.2"),
    ("NEFY", "≤ 0.2"),
    ("RMAT", 0.913),
    ("RRMT", 0.6),
    ("RWVK", "≤ 0.2"),
    ("RCLC", 1.02),
    ("AWGT", "≤ 0.2"),
]
